Please go through the items and note down their IC50.
# Measured Target: EGFR Del19/C797S (Homo sapiens, UniProt P00533, C797S/DEL746-750)
# Sequence (P00533 with tags, fused parts or gaps DEL746-750/C797S): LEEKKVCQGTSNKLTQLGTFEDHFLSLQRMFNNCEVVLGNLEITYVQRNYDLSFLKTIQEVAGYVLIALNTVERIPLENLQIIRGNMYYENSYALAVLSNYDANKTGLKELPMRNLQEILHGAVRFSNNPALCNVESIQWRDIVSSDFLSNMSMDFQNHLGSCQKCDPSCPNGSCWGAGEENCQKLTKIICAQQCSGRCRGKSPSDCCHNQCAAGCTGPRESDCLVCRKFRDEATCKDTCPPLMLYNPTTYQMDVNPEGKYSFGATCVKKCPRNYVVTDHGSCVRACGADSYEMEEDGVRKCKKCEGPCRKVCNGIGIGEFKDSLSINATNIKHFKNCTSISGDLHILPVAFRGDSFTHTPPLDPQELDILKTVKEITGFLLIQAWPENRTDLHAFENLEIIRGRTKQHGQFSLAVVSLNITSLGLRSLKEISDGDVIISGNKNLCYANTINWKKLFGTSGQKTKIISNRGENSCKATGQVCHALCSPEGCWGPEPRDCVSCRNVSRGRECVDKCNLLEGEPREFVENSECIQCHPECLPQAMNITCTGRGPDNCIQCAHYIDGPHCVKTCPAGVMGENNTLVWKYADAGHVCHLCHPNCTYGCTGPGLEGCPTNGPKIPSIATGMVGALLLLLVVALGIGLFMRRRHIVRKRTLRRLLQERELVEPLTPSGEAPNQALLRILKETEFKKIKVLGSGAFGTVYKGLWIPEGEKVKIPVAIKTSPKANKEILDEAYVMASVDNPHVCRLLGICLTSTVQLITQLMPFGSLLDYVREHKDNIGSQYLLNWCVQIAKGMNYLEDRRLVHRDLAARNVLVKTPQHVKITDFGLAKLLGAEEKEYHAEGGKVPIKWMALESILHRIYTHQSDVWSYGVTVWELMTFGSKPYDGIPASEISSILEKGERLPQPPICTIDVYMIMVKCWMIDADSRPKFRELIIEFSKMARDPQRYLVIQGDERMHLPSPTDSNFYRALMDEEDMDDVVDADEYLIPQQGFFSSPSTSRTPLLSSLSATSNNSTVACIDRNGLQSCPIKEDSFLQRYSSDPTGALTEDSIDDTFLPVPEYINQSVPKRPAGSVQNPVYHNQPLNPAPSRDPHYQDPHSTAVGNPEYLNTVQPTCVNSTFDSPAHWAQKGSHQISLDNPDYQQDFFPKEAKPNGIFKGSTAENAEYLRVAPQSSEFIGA
# Test Description: Biochemical EGFR kinase inhibition assay (Lance Ultra TR-FRET), double mutant del19/C797S
# Assay Conditions: ATP at Km; read-out: IC50 Del19/C797S (nM), Km ATP
Numbers only, in nM.

Name the recorded IC50 of the item CC1(CO)CCN(c2cc(Nc3ccnc(-c4cnn(S(=O)(=O)C5CC5)c4)n3)ncc2C#Cc2cn(CC(F)F)c3ccncc23)CC1 in your answer.
6.9

Name the recorded IC50 of the item CC1(CO)CCN(c2cc(Nc3ccnc(-c4cnn(S(=O)(=O)C5CC5)c4)n3)ncc2C#Cc2cnn(C(F)F)c2)CC1 in your answer.
0.6

Name the recorded IC50 of the item CC1(CO)CCN(c2cc(Nc3ccnc(-c4cnn(S(=O)(=O)C5CC5)c4)n3)ncc2C#C[Si](C)(C)C)CC1 in your answer.
34

Name the recorded IC50 of the item O=S(=O)(C1CC1)n1cc(-c2nccc(Nc3cc(N4CCC5(CCO5)CC4)c(C#Cc4cccnc4)cn3)n2)cn1 in your answer.
3.1

Name the recorded IC50 of the item CC1(CO)CCN(c2cc(Nc3ccnc(-c4cnn(S(=O)(=O)C5CC5)c4)n3)ncc2C#Cc2cnn(C3COC3)c2)CC1 in your answer.
0.6

Below: the item to evaluate.
Name the recorded IC50 of the item CC1(CO)CCN(c2cc(Nc3ccnc(-c4cnn(S(=O)(=O)C5CC5)c4)n3)ncc2C#Cc2cnn3c2CN(CC(F)F)CC3)CC1 in your answer.
4.2

----------
# Measured Target: EGFR Del19/C797S (Homo sapiens, UniProt P00533, C797S/DEL746-750)
# Test Description: Biochemical EGFR kinase inhibition assay (Lance Ultra TR-FRET), double mutant del19/C797S
# Assay Conditions: Km ATP; read-out: IC50 Del19/C797S (nM) Km ATP
Observation Type: IC50 (nM)
Numbers only, in nM.

Name the recorded IC50 of the item CCC(C)Nc1cc(Nc2ccnc(-c3cnn(S(=O)(=O)C4CC4)c3)n2)ncc1C#Cc1cnn(C)c1 (stereo not shown) in your answer.
32.9

Name the recorded IC50 of the item Cn1cc(C#Cc2cnc(Nc3ccnc(-c4cnn(S(=O)(=O)C5CC5)c4)n3)cc2N[C@H]2CC[C@@H](O)CC2)cn1 in your answer.
1.3

Name the recorded IC50 of the item CN1CCn2ncc(C#Cc3cnc(Nc4ccnc(-c5cnn(S(=O)(=O)C6CC6)c5)n4)cc3N3CCC(C)(CO)CC3)c2C1 in your answer.
0.8

Below: the item to evaluate.
Name the recorded IC50 of the item CN1CCN(c2cc(Nc3ccnc(-c4cnn(S(=O)(=O)C5CC5)c4)n3)ncc2C#Cc2cnn(C)c2)CC1 in your answer.
71.3

----------
# Measured Target: EGFR L858R/T790M/C797S (Homo sapiens, UniProt P00533, C797S/L858R/T790M)
# Sequence (P00533 25-1210 T790M/C797S/L858R): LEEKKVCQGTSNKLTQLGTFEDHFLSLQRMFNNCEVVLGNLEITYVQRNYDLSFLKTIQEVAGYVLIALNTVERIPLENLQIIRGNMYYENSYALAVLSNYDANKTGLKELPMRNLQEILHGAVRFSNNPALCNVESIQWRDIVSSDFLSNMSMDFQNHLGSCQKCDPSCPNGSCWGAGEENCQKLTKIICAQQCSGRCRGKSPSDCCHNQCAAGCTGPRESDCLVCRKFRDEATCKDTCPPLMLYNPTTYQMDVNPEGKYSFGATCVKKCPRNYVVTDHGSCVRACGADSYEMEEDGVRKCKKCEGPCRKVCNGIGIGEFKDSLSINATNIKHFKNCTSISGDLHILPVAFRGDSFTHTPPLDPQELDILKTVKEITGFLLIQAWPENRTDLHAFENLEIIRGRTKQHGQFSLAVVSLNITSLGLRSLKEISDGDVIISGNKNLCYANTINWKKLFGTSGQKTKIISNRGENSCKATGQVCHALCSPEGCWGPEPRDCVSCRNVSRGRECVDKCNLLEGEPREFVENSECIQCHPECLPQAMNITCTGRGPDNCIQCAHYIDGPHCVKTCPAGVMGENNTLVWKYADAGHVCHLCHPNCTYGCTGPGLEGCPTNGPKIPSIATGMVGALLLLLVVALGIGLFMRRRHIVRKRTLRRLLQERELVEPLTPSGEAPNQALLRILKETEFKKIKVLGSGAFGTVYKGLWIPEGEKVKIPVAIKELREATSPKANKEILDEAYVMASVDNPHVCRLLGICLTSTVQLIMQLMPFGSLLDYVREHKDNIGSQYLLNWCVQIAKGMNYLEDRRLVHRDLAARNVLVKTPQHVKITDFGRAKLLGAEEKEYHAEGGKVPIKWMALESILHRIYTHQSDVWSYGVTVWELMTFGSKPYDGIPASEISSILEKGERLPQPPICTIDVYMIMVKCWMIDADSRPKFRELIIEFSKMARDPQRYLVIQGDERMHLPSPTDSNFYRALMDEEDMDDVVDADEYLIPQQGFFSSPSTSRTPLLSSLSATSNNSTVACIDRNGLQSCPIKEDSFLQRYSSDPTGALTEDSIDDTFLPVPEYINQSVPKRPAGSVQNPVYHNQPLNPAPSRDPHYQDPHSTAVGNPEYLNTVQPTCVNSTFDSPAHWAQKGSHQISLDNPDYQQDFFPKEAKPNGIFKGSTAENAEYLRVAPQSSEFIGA
# Test Description: Biochemical EGFR kinase inhibition assay (Lance Ultra TR-FRET), triple mutant L858R/T790M/C797S
# Assay Conditions: IC50 L858R/T790M/C797S (nM), 100 μM ATP
Category scheme (IC50): bin 0: < 2 nM; bin 1: ≥ 2 nM and < 7 nM; bin 2: ≥ 7 nM

Each compound maps to one class by IC50. Which class for CS(=O)(=O)N1CCC(C#Cc2cnc(Nc3ccnc(-c4cnn(S(=O)(=O)C5CC5)c4)n3)cc2NC[C@H]2CC[C@H](CO)CC2)CC1 ?
bin 2

Each compound maps to one class by IC50. Which class for CC1(O)CCN(c2cc(Nc3ccnc(-c4cnn(S(=O)(=O)C5CC5)c4)n3)ncc2C#CC2(F)CCOC2)CC1 (stereo not shown) ?
bin 0

Each compound maps to one class by IC50. Which class for CC1(CO)CCN(c2cc(Nc3ccnc(-c4cnn(S(=O)(=O)C5CC5)c4)n3)ncc2C#Cc2cnn3c2CN(CC(F)F)CC3)CC1 ?
bin 1

Each compound maps to one class by IC50. Which class for CC(C)Nc1cc(Nc2ccnc(-c3cnn(S(=O)(=O)C4CC4)c3)n2)ncc1C#Cc1csc(CF)n1 ?
bin 2

Each compound maps to one class by IC50. Which class for O=S(=O)(C1CC1)n1cc(-c2nccc(Nc3cc(N[C@H]4CC[C@@H](CO)CC4)c(C#Cc4cnn(C(F)F)c4)cn3)n2)cn1 ?
bin 1

Continuing:
Each compound maps to one class by IC50. Which class for CC(=O)N1CCC(n2cc(C#Cc3cnc(Nc4ccnc(-c5cnn(S(=O)(=O)C6CC6)c5)n4)cc3N3CCC(=O)CC3)cn2)CC1 ?
bin 2

Each compound maps to one class by IC50. Which class for CN(C)CCCn1cc(C#Cc2cnc(Nc3ccnc(-c4cnn(S(=O)(=O)C5CC5)c4)n3)cc2N2CCC(C)(CO)CC2)cn1 ?
bin 0

Each compound maps to one class by IC50. Which class for CC1(CO)CCN(c2cc(Nc3ccnc(-c4cnn(S(=O)(=O)C5CC5)c4)n3)ncc2C#CC2CC(C(C)(C)O)C2)CC1 (stereo not shown) ?
bin 0

Each compound maps to one class by IC50. Which class for CC1(CO)CCN(c2cc(Nc3ccnc(-c4cnn(S(=O)(=O)C5CC5)c4)n3)ncc2C#Cc2cnn(CC3COCCO3)c2)CC1 (stereo not shown) ?
bin 0

Each compound maps to one class by IC50. Which class for O=S(=O)(C1CC1)n1cc(-c2nccc(Nc3cc(N4CCC(F)(CO)CC4)c(C#Cc4cnn(C5CCOCC5)c4)cn3)n2)cn1 ?
bin 1

Each compound maps to one class by IC50. Which class for O=S(=O)(C1CC1)n1cc(-c2nccc(Nc3cc(N4CCC(O)CC4)c(C#Cc4cnn(CCF)c4)cn3)n2)cn1 ?
bin 1

Each compound maps to one class by IC50. Which class for O=S(=O)(C1CC1)n1cc(-c2nccc(Nc3cc(N4[C@@H]5CC[C@H]4C[C@H](CO)C5)c(C#Cc4cnn(C(F)(F)F)c4)cn3)n2)cn1 ?
bin 2

----------
Please go through the items and note down their IC50.
# Measured Target: EGFR Del19/T790M/C797S (Homo sapiens, UniProt P00533, C797S/DEL746-750/T790M)
# Sequence (P00533 with tags, fused parts or gaps DEL746-750/T790M/C797S): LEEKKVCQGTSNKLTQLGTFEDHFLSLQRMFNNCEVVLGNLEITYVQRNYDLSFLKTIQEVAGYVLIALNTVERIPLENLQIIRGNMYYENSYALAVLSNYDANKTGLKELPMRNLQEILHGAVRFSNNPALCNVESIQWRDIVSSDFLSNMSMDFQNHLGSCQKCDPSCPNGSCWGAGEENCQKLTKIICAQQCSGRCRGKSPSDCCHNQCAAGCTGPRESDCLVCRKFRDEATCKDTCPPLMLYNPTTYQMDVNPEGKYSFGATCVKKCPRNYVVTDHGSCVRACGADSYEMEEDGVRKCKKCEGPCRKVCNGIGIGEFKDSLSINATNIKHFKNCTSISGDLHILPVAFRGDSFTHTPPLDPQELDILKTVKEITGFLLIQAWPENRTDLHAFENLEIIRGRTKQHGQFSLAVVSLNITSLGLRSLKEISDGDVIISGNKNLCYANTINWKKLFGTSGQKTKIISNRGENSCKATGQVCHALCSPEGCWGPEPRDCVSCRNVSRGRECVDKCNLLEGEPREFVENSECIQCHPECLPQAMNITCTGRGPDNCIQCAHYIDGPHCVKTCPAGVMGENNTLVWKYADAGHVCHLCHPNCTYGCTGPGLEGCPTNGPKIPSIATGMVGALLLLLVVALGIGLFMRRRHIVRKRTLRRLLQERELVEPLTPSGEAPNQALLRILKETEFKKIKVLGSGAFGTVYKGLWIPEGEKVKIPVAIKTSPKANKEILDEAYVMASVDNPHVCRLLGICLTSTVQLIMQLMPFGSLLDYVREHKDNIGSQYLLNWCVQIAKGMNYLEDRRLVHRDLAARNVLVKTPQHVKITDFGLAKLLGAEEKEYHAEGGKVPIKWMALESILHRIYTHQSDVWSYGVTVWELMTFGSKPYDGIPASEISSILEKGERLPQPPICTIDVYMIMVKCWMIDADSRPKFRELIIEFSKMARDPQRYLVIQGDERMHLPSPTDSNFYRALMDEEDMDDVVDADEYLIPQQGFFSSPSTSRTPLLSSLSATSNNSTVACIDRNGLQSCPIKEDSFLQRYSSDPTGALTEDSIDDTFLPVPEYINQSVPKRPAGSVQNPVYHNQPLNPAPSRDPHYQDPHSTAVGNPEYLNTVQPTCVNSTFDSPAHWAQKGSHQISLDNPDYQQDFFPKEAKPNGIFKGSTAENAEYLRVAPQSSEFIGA
# Test Description: Biochemical EGFR kinase inhibition assay (Lance Ultra TR-FRET), triple mutant del19/T790M/C797S
# Assay Conditions: IC50 Del19/T790M/C797S (nM), 100 μM ATP
Structures can show the parent of a compound that is named as a salt.
Numbers only, in nM.

Example entries begin here.
Name the recorded IC50 of the item CS(=O)(=O)N1CCC(C#Cc2cnc(Nc3ccnc(-c4cnn(S(=O)(=O)C5CC5)c4)n3)cc2NC2CCC(CO)CC2)C1 (stereo not drawn) in your answer.
0.9

Name the recorded IC50 of the item CN(C)CCC1CCN(c2cc(Nc3ccnc(-c4cnn(S(=O)(=O)C5CC5)c4)n3)ncc2C#Cc2cnn(C)c2)CC1 [Example 294, formate] in your answer.
0.1

Continuing:
Name the recorded IC50 of the item CC1(CO)CCN(c2cc(Nc3ccnc(-c4cnn(S(=O)(=O)C5CC5)c4)n3)ncc2C#Cc2cnn(CC3CCOC3)c2)CC1 (stereo not drawn) in your answer.
1.4

----------
# Measured Target: EGFR Del19/C797S (Homo sapiens, UniProt P00533, C797S/DEL746-750)
# Test Description: Biochemical EGFR kinase inhibition assay (Lance Ultra TR-FRET), double mutant del19/C797S
# Assay Conditions: IC50 Del19/C797S (nM), 100 μM ATP
Where a name gives a salt, the structure may show the parent alone.
Observation Type: IC50 (nM)
One number for each entry, in nM.

Name the recorded IC50 of the item CN(C)CCC1CCN(c2cc(Nc3ccnc(-c4cnn(S(=O)(=O)C5CC5)c4)n3)ncc2C#Cc2cnn(CC(F)F)c2)CC1 in your answer.
0.3

Name the recorded IC50 of the item CC1(C#Cc2cnc(Nc3ccnc(-c4cnn(S(=O)(=O)C5CC5)c4)n3)cc2N2CCC(C)(CO)CC2)CCOCC1 in your answer.
43.9

Name the recorded IC50 of the item C[C@]1(O)CC[C@@H](Nc2cc(Nc3ccnc(-c4cnn(S(=O)(=O)C5CC5)c4)n3)ncc2C#Cc2cnn(C(F)(F)F)c2)CC1 in your answer.
64.2

Name the recorded IC50 of the item CC1(C#Cc2cnc(Nc3ccnc(-c4cnn(S(=O)(=O)C5CC5)c4)n3)cc2N2CCC(C)(CO)CC2)CC1 in your answer.
3.7

Name the recorded IC50 of the item CN1CCC2(CCN(c3cc(Nc4ccnc(-c5cnn(S(=O)(=O)C6CC6)c5)n4)ncc3C#Cc3cnn(C)c3)CC2)C1 [Example 297, formate] in your answer.
3.2

Name the recorded IC50 of the item Cn1cc(C#Cc2cnc(Nc3ccnc(-c4cnn(S(=O)(=O)C5CC5)c4)n3)cc2N2CCC(CO)C2)cn1 (centres unmarked) in your answer.
10.2

List IC50 for every entry below, keeping the order given.
1. CC1(CO)CCN(c2cc(Nc3ccnc(-c4cnn(S(=O)(=O)C5CC5)c4)n3)ncc2C#CC2COC2)CC1
2. CC(C)Nc1cc(Nc2ccnc(-c3cnn(S(=O)(=O)C4CC4)c3)n2)ncc1C#Cc1cnn(CCF)c1
3. Cn1cc(C#Cc2cnc(Nc3ccnc(-c4cnn(S(=O)(=O)C5CC5)c4)n3)cc2N[C@@H]2CCC[C@H](O)C2)cn1
4. Cn1cnc(C#Cc2cnc(Nc3ccnc(-c4cnn(S(=O)(=O)C5CC5)c4)n3)cc2NCC(C)(C)CO)c1
5. CN(C)CC1(O)CCN(c2cc(Nc3ccnc(-c4cnn(S(=O)(=O)C5CC5)c4)n3)ncc2C#Cc2cnn(C)c2)CC1
6. O=S(=O)(C1CC1)n1cc(-c2nccc(Nc3cc(NC4CCC(CO)CC4)c(C#CC4(F)CCOC4)cn3)n2)cn1 (centres unmarked)

1. 0.5
2. 61.5
3. 7.3
4. 37.7
5. 52.2
6. 5.2

List IC50 for every entry below, keeping the order given.
1. O=S(=O)(C1CC1)n1cc(-c2nccc(Nc3cc(N[C@H]4CC[C@@H](O)CC4)c(C#Cc4ccc(CN5CCOCC5)cn4)cn3)n2)cn1
2. CC(=O)N1CCC(n2cc(C#Cc3cnc(Nc4ccnc(-c5cnn(S(=O)(=O)C6CC6)c5)n4)cc3N3CCC(C)(CO)CC3)cn2)CC1
3. CC1(CO)CCN(c2cc(Nc3ccnc(-c4cnn(S(=O)(=O)C5CC5)c4)n3)ncc2C#Cc2cnn(CC3COCCO3)c2)CC1 (centres unmarked)

3.5
1.7
0.6

List IC50 for every entry below, keeping the order given.
1. CN1CCC2(CC1)CCN(c1cc(Nc3ccnc(-c4cnn(S(=O)(=O)C5CC5)c4)n3)ncc1C#Cc1cnn(CC(F)F)c1)CC2
2. O=S(=O)(C1CC1)n1cc(-c2nccc(Nc3cc(N[C@H]4CCC[C@H](O)C4)c(C#Cc4cnn(CCF)c4)cn3)n2)cn1
3. CN(C)Cc1ccc(C#Cc2cnc(Nc3ccnc(-c4cnn(S(=O)(=O)C5CC5)c4)n3)cc2N2CCC(C)(CO)CC2)cc1
4. CC1(CO)CCN(c2cc(Nc3ccnc(-c4cnn(S(=O)(=O)C5CC5)c4)n3)ncc2C#Cc2cnn3c2CN(CC(F)F)CC3)CC1
5. O=S(=O)(C1CC1)n1cc(-c2nccc(Nc3cc(NC4CCC(O)CC4)c(C#CC4CCOC4C(F)(F)F)cn3)n2)cn1 (centres unmarked)

6
2.6
0.4
3.5
6.9

Hey, just so you know, these numbers are from patent US11981658B2.
